system: Pseudomonas aeruginosa (ATCC 27853); assay: MIC and MBC measurement with Pseudomonas aeruginosa (ATCC 27853); format: cell-based; details: Table 6; P. aureginosa (ATCC 27853)
The reader will find reported MIC values listed item by item below.
Record the value in µg/mL, omitting the unit from your answer.

Supply MIC measured with Pseudomonas aeruginosa (ATCC 27853) for C[C@H](CCCN(C)Cc1ccccc1)[C@H]1CC[C@H]2[C@@H]3[C@H](OCCCN)C[C@@H]4C[C@H](OCCCN)CC[C@]4(C)[C@H]3C[C@H](OCCCN)[C@]12C [Compound 2] .
9

Supply MIC measured with Pseudomonas aeruginosa (ATCC 27853) for C[C@H](CCCN(C)Cc1ccccc1)[C@H]1CC[C@H]2[C@@H]3[C@H](OCCN)C[C@@H]4C[C@H](OCCN)CC[C@]4(C)[C@H]3C[C@H](OCCN)[C@]12C [Compound 1] .
15

Supply MIC measured with Pseudomonas aeruginosa (ATCC 27853) for C[C@H](CCCN(C)Cc1ccccc1)[C@H]1CC[C@H]2[C@@H]3[C@H](OCCNC(=N)N)C[C@@H]4C[C@H](OCCNC(=N)N)CC[C@]4(C)[C@H]3C[C@H](OCCNC(=N)N)[C@]12C [Compound 4] .
15

Supply MIC measured with Pseudomonas aeruginosa (ATCC 27853) for C[C@H](CCCN(C)Cc1ccccc1)[C@H]1CC[C@H]2[C@@H]3[C@H](OCCCCN)C[C@@H]4C[C@H](OCCCCN)CC[C@]4(C)[C@H]3C[C@H](OCCCCN)[C@]12C [Compound 3] .
16
